system: human APOE RNA; test: Dose-dependent inhibition of human APOE RNA in HepG2 cells, electroporation, 24 hours (Example 6); type: cell-based; details: 33 nM
Strand notation (5' to 3'): a small letter for the sugar, then the base; units joined by * are phosphorothioate-linked, units joined directly phosphodiester-linked; [ ] holds rarer units or linkages, { } end groups; capitals alone tell only the bases. [ms] = mesyl phosphoramidate linkage; e = 2'-O-(2-methoxyethyl) (MOE); k = constrained ethyl (cEt); [5mC] = 5-methylcytosine; d = 2'-deoxy (DNA)
Measured APOE RNA (% UTC), listed per entry for reference.
Form entry: value (% UTC) — number only.

Consider the following illustrative entries.
[[record]]
substance = "1736521: 6-10-4 MOE gapmer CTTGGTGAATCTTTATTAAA, linkages sosssszzzsssssssoss (e[5mC]*eTeT*eG*eG*eT*dG[ms]dA[ms]dA[ms]dT*d[5mC]*dT*dT*dT*dA*dT*eTeA*eA*eA) [compound 1736521]"
measured_number = 84

[[record]]
substance = "1693105: 6-10-4 MOE gapmer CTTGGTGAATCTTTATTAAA, linkages sosssszzzssssszssss (e[5mC]*eTeT*eG*eG*eT*dG[ms]dA[ms]dA[ms]dT*d[5mC]*dT*dT*dT*dA[ms]dT*eT*eA*eA*eA) [compound 1693105]"
measured_number = 118

[[record]]
substance = "1736514 (e[5mC]*eTeT*eG*kG*kT*dG[ms]dA[ms]dA[ms]dT*d[5mC]*dT*dT*dT*dA[ms]dT*eT*eA*eA*eA; antisense) [Compound 1736514]"
measured_number = 96


# context switch: different substance, same APOE RNA (% UTC)
Lab note: substance 1736492 (e[5mC]*eTeT*eG*eG*eT*dG[ms]dA[ms]dA[ms]dT*d[5mC]*dT*dT*dT*dA[ms]dT*kT*eA*eA*eA; antisense) [Compound 1736492] tested on human APOE RNA; recorded APOE RNA (% UTC) was 76

====

Measured APOE RNA (% UTC), listed per entry for reference.
system: human APOE RNA; experiment: Dose-dependent inhibition of human APOE RNA in HepG2 cells, electroporation, 50,000 cells per well, RT-PCR normalized to GAPDH (Example 4, Tables 8-10); assay type: cell-based; conditions: 3,200 nM; HepG2, electroporation, 16-hour treatment
Strand notation (5' to 3'): a small letter for the sugar, then the base; units joined by * are phosphorothioate-linked, units joined directly phosphodiester-linked; [ ] holds rarer units or linkages, { } end groups; capitals alone tell only the bases. [ms] = mesyl phosphoramidate linkage; e = 2'-O-(2-methoxyethyl) (MOE); k = constrained ethyl (cEt); [5mC] = 5-methylcytosine; d = 2'-deoxy (DNA)

[[record]]
substance = "1757571 (eA*e[5mC]eTeT*eG*kG*dT*dG[ms]dA[ms]dA[ms]dT*d[5mC]*dT*dT*dT*dA[ms]eT*eT*eA*eA; antisense) [Compound 1757571]"
result = "24 % UTC"


APOE RNA (% UTC) for 1757554: mixed MOE/cEt gapmer TTGGTGAATCTTTATTAA, sugar kkeeeddddddddeeeee, linkages soossssssssssooss (kT*kTeGeG*eT*dG*dA*dA*dT*d[5mC]*dT*dT*dT*eAeTeT*eA*eA) [compound 1757554] is 27 % UTC

APOE RNA (% UTC) for 1757565 (eA*e[5mC]eTeTkG*dG*dT*dG*dA*dA*dT*d[5mC]*dT*dT*dT*eAeTeT*eA*eA; antisense) [Compound 1757565] is 30 % UTC

APOE RNA (% UTC) for Compound No. 1517891: comparator of WO 2022/066956; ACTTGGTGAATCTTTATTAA, sugar eeeeeddddddddddeeeee, linkages sooosssssssssssooss (MOE gapmer, mixed PS/PO linkages, chemistry not fully specified) [reference compound] is 36 % UTC
